- Tested on: S. aureus RN4220/pMS520
- assay-explanation: MIC, agar plate dilution method, S. aureus RN4220/pMS520
- Type: cell-based, Staphylococcus aureus
- run-parameters: Staphylococcus aureus, MRSA, read-out: minimal inhibitory concentration (MIC), S. aureus RN4220/pMS520, MRSA
// MIC lookup, one value per entry
Give your result as the value with the unit written after it.

molecule	MIC
CNC1C(O[C@H]2OC(CO)[C@@H](NC)[C@H](O)C2O)O[C@H]2CC(N)[C@@H](O[C@H]3CC(O)[C@H](N)CC3N)OC2C1O (stereo partly shown)	2 µg/mL
NCC[C@H](O)C(=O)N[C@@H]1C[C@H](N)[C@@H](O[C@H]2O[C@H](CN)CC[C@H]2N)[C@H](O)[C@H]1O[C@H]1O[C@H](CO)[C@@H](O)[C@H](N)[C@H]1O [ABK, arbekacin, reference compound]	1 µg/mL
CNC1C(O[C@H]2OC(CO)[C@@H](NC(=O)CCN)[C@H](O)C2O)O[C@H]2C[C@H](N)[C@@H](O[C@@H]3C(N)C[C@@H](N)C[C@H]3O)OC2C1O (stereo partly drawn) [Compound V1-q, 4″-N-(β-alanyl)-6-deoxy-5-epiapramycin]	1 µg/mL

Ask | Any idea what MIC was measured for CNC1C(O[C@H]2OC(C)[C@@H](NC(CN)CN)[C@H](O)C2O)O[C@H]2CC(N)[C@@H](O[C@H]3CC(O)[C@H](N)CC3N)OC2C1O (stereo partly shown) ?
Reply | 1 µg/mL

Ask | Try this molecule next: CNC1C(O[C@H]2OC(CO)[C@@H](NCCN)[C@H](O)C2O)O[C@H]2CC(N)[C@@H](O[C@@H]3C(N)C[C@@H](N)C[C@H]3O)OC2C1O (stereo partly shown)
Reply | 2 µg/mL

Ask | Now this one: CNC1C(O[C@H]2OC(CO)[C@@H](NC(CN)CN)[C@H](O)C2O)O[C@H]2CC(N)[C@@H](O[C@H]3CC(O)[C@H](N)CC3N)OC2C1O (stereo partly shown)
Reply | 1 µg/mL

Ask | Next up: CNC1C(O[C@H]2OC(CO)[C@@H](NC(=O)[C@H](C)N)[C@H](O)C2O)O[C@H]2CC(N)[C@@H](O[C@@H]3C(N)C[C@@H](N)C(O)[C@H]3O)OC2C1O (stereo partly drawn) [Compound V1-k, 4″-N-(L-alanyl)-5-epiapramycin]
Reply | 4 µg/mL
